test system: SF-268; assay: NCI tumour cell line growth inhibition, 48 h
The source made the active and inactive calls. Rule as the data show it: active = GI50 up to about 1.1 µM and inactive = higher.
The following compounds are shown together with reported GI50 values.
measurement.kind: GI50

compound	experimental.target	assay.value
O=C(O)CN(c1ccc(Cl)cc1)S(=O)(=O)c1ccccc1	SF-268	> 100 µM (inactive)
Cc1c(C)c(C)n(C2OC(CO)C(O)C(O)C2O)c(=S)c1C#N (stereo not given)	SF-268	> 100 µM (inactive)
CC1OC(O[C@H]2CC[C@]3(C)[C@H]4CC=C5[C@@H]6[C@@H](C)[C@H](C)CC[C@]6(C(=O)O)CC[C@@]5(C(=O)O)[C@]4(C)CC[C@H]3C2(C)C)C(O)C(O)C1O (stereo not given in full)	SF-268	> 75 µM (inactive)
S=c1[nH]c(Cl)cc2nc(Cl)cn12	SF-268	5.11 µM (inactive)
Nc1ccc2c(c1)nc1n2C(c2c(F)cccc2F)SC1 (stereo not given)	SF-268	> 100 µM (inactive)

----------
test system: UACC-62; assay: NCI tumour cell line growth inhibition, 48 h
Active and inactive are the calls of the source. No stated cut-off is given here; in the data, active = GI50 up to about 1.1 µM and inactive = higher.
measurement.kind: GI50

compound.string	assay.value
Clc1cc(OCc2nn3c(Cc4ccccc4)nnc3s2)ccc1OCc1nn2c(Cc3ccccc3)nnc2s1	40.6 µM (inactive)
Cc1cccc2sc(NC(=O)c3cc([N+](=O)[O-])ccc3Cl)nc12	3.61 µM (inactive)
CC(C)c1cc(C(C)C)c(S(=O)(=O)N=[N+]=[N-])c(C(C)C)c1	> 100 µM (inactive)
COc1cc2c(c(OC)c1OC)C(=O)[C@@H](O)[C@H]2NC(N)=O	83.4 µM (inactive)
O=C(/C=C/c1ccsc1)c1ccco1	14.6 µM (inactive)
COc1ccc(Nc2nc3ccc(C(F)(F)F)cc3nc2C(=O)O)cc1	19.1 µM (inactive)

----------
tested on: OVCAR-4; test: NCI tumour cell line growth inhibition, 48 h
Calls of active or inactive are those of the source. No stated cut-off is given here; in the data, active = GI50 up to about 1.1 µM and inactive = higher.
GI50: recorded values
measurement.kind: GI50

compound	assay.value
COc1ccc(Nc2nnc(CCCCCCCCc3nnc(Nc4ccc(OC)cc4)o3)o2)cc1	> 100 µM (inactive)
O=c1ccc2c(Cl)cccc2o1	> 100 µM (inactive)
O=c1c2cccc3cccc(c4n1CCN=4)c32	40.8 µM (inactive)
COC1=CC(=O)c2c(O)c3c(c(O)c2C1=O)C[C@](C)(O)C[C@@H]3O	3.72 µM (inactive)
CCOC(=O)C1C(O)CC2c3ccccc3-c3ccccc3C21 (stereo not drawn)	> 100 µM (inactive)
O=C1C(Cl)C(c2ccc([N+](=O)[O-])cc2)N1n1cnc2ccccc2c1=O (stereo not drawn)	5.64 µM (inactive)
CC1=C(C(=O)Nc2ccc([N+](=O)[O-])cc2)C(c2ccc(N(C)C)cc2)C(C(=O)Nc2ccc([N+](=O)[O-])cc2)=C(C)N1	21.1 µM (inactive)
Clc1cc(OCc2nn3c(Cc4ccccc4)nnc3s2)ccc1OCc1nn2c(Cc3ccccc3)nnc2s1	19.4 µM (inactive)
CN(C)NC1=NS(=O)(=O)c2cc3c(=O)n(C)[nH]c3cc2S1	> 10 µM (inactive)
N#Cc1c(-c2ccc(Cl)cc2)c2c(n(C3OC(CO)C(O)C(O)C3O)c1=S)CCC2 (stereo not drawn)	34 µM (inactive)
COc1ccc(C(O)c2nccn2C)c(OC)c1 (stereo not drawn)	> 100 µM (inactive)
O=C1CCC(C(=O)O)C2=C1CCCC2 (stereo not drawn)	> 100 µM (inactive)
COC(=O)C(CCC1C=CCC1)/N=C\c1ccccc1 (stereo not drawn)	54.7 µM (inactive)
Cc1ccc(-[n+]2cc([O-])on2)cc1	> 100 µM (inactive)
Cc1ccc2nc(C(C)C)c(=O)[nH]c2c1	71.9 µM (inactive)
O=C(/C=C/c1cc(O)c(O)cc1O)OCCc1ccccc1	17.7 µM (inactive)
COC(=O)/C(Cl)=C1/CC1COCc1ccccc1 (stereo not drawn)	31 µM (inactive)
CC1=NN(C(=O)c2ccccc2)C(=O)C1/N=N/c1ccccc1C(=O)O (stereo not drawn)	5.62 µM (inactive)
COc1ccccc1Cn1nc(OC)c2cc([N+](=O)[O-])ccc21	13.4 µM (inactive)
Cn1nc(S(N)(=O)=O)s/c1=N/S(=O)(=O)c1ccc(N)cc1	> 100 µM (inactive)
CN(C)Cc1ccc(-c2cc3onc(-c4ccccc4)c3c(=O)n2C)cc1	84.9 µM (inactive)
C=CN1CCN(c2ccccc2)P1(=O)Oc1ccccc1 (stereo not drawn)	> 100 µM (inactive)
CC(C)(CC#N)c1cc(CC(C)(C)c2cc(CC(C)(C)c3cc(C(C)(C)C4(C)OCCO4)no3)no2)no1	23.5 µM (inactive)

----------
Form field: GI50 (one value per entry).
test system: HCT-116; assay: NCI tumour cell line growth inhibition, 48 h
Active and inactive are the calls of the source. Cut-off read from the data, not from the text of the source: active = GI50 up to about 1.1 µM and inactive = higher.

compound	GI50
Cc1ccc(-[n+]2cc([O-])on2)cc1	> 100 µM (inactive)
COc1ccc(C2c3cc4c(cc3OC(Nc3ccccc3)C2C)OCO4)cc1 (centres undefined)	12.7 µM (inactive)
OCc1cc2ccncc2c2c1[nH]c1ccccc12	3.74 µM (inactive)
CCCCc1ccc(-n2sc3ncccc3c2=O)cc1	11.6 µM (inactive)
CC1CCOc2ccc(cc2)/C=N\c2ccc(cc2)CCc2ccc(cc2)/N=C\c2ccc(cc2)OCC1	> 100 µM (inactive)
O=C1C=C(c2c(-c3ccccc3)[nH]c3ccccc23)C(=O)N1c1ccccc1	6.49 µM (inactive)
COc1cc2c(cc1OC)C1C(O)C(OC)C=C3CC[N+](C)(C2)C31 (centres undefined)	> 100 µM (inactive)
CN(C)c1ccccc1CC(c1c[nH]c2ccccc12)c1c[nH]c2ccccc12	11.2 µM (inactive)
Nc1ncnc2c1ncn2C1OC(CO)C(O)C(O)C1O (centres undefined)	> 100 µM (inactive)
CCN(CC)CCCNc1nnc(C)c2[nH]c3ccccc3c12	5.36 µM (inactive)
CC1=NN(C(=O)Cc2ccccc2)C(=O)/C1=C\c1ccc(O)cc1	> 100 µM (inactive)
CC1=C(/C=C/Cl)CC(Cl)C(C)(Cl)C1 (centres undefined)	> 100 µM (inactive)
Clc1ccc(C2=NN(c3ccccc3)C3c4cc(Br)ccc4OCC23)cc1 (centres undefined)	18.6 µM (inactive)
COC(CC1(CCNc2ccccc2)C(=O)N(COCC[Si](C)(C)C)c2ccccc21)OC (centres undefined)	13.9 µM (inactive)
COC(=O)C(=O)C(C(=O)C1=NS(=O)(=O)c2cc(S(N)(=O)=O)c(Cl)cc2N1)c1nc2ccc(C(=O)c3ccccc3)cc2nc1O (centres undefined)	> 100 µM (inactive)
CC(=O)OCC1OC(c2nc3ccccc3s2)=CC(OC(C)=O)C1OC(C)=O (centres undefined)	57.5 µM (inactive)
CC(C)c1cc(C(C)C)c(B(c2ccccc2)c2ccccc2)c(C(C)C)c1Br	> 100 µM (inactive)
O=C(/C=C/c1ccccc1)/C=C/c1ccccc1O	15.1 µM (inactive)
CN(CCNC(=O)c1nn(C)c2c1Cc1ccccc1-2)CCNC(=O)c1nn(C)c2c1Cc1ccccc1-2	15.1 µM (inactive)
CN1CCN(C2=NCCO2)CC1	> 100 µM (inactive)
CC(O)CC(O)(C(F)(F)F)C(F)(F)F (centres undefined)	> 10 µM (inactive)
O=C1CCC2SC1CCC2=O	> 100 µM (inactive)
Cc1cnc2sn(-c3ccc(Oc4ccccc4)cc3)c(=O)c2c1	14 µM (inactive)
CC(C)(CCC(C)(C)N1OC1c1ccccc1)N1OC1c1ccccc1 (centres undefined)	56.8 µM (inactive)
Cc1ccc2nc(C(C)C)c(=O)[nH]c2c1	> 100 µM (inactive)
CC1=NN(c2ccccc2)C(=O)C1=C1SCCCS1	13.8 µM (inactive)
O=C1C2CC=CCC2C(=O)N1n1c(Cc2ccccc2)n[nH]c1=O (centres undefined)	> 100 µM (inactive)
COc1ccc(C2SC(=N)Nc3c2c(C)nn3C(=O)c2ccc(Cl)cc2)cc1OC (centres undefined)	> 10 µM (inactive)
O=C1C(Cl)C(c2ccc([N+](=O)[O-])cc2)N1n1cnc2ccccc2c1=O (centres undefined)	43.9 µM (inactive)
COc1ccc(-c2c(-c3ccc(OC)cc3)n3c(=O)n(C)c(=O)n23)cc1	> 100 µM (inactive)
CCCn1c(=O)c2nn3c(=O)n(CCC)c(=O)c3nn2c1=O	> 100 µM (inactive)
COc1ccc(OC)c(/C(C)=N/NC(N)=S)c1	> 100 µM (inactive)
CC(NC(=O)c1ccc(OP(=O)(OCc2ccc([N+](=O)[O-])o2)N(C)CCCCCl)cc1)c1ccc(OCC2CCCCC2)c(C(N)=O)c1 (centres undefined)	2.88 µM (inactive)
CN(C)c1cc[n+](-c2nc([N-]C(=O)C(F)(F)F)nc3c2ncn3C2CC(O)C(CO)O2)cc1 (centres undefined)	> 100 µM (inactive)
CC(=O)/C(=C/N1C(=O)CC(=O)NC1=S)C(=O)Nc1ccccc1C	31.6 µM (inactive)
Cc1ccc(NC(=O)C(=O)CC(=O)c2ccccc2)cc1C	60.3 µM (inactive)
CCC(O)c1ccc(/N=C/c2ccccc2O)cc1 (centres undefined)	74.1 µM (inactive)
N=NCC(=O)OC(COCc1ccccc1)COCc1ccccc1	> 100 µM (inactive)
Cc1cc(C)n(CN(Cn2nc(C)cc2C)c2ccccc2)n1	19.8 µM (inactive)
NC(=O)NC1C(c2ccccc2)=C1c1ccccc1	15.7 µM (inactive)
CC(=O)OCC1OC(OC2CC3C(C)(C)C(O)CC[C@]3(C)C3CCC45CC4(CCC5[C@@H](C)CC(O)C(O)C(C)(C)O)[C@]23C)C(O)C(O)C1O (some centres undefined)	> 10 µM (inactive)
O=C(/C=C/c1cc(O)c(O)cc1O)OCCc1ccccc1	> 41.7 µM (inactive)
CCOP(=O)(OCC)C1CC(C)OC1=O (centres undefined)	> 100 µM (inactive)
CC(=O)OCC1OC(NC(=S)Nn2c(-c3ccccc3)nc3ccccc3c2=O)C(OC(C)=O)C(OC(C)=O)C1OC(C)=O (centres undefined)	> 100 µM (inactive)

These data points were gathered from ChEMBL document CHEMBL1201862.
